// provenance: ChEMBL document CHEMBL5724914

- MEASUREMENT PROTOCOL: The drug is tested on WLS-090 corresponding to human gut metagenome with ENA study accession number: PRJEB37062 and ENA sample accession number: ERS12561753 for biotransformation under anaerobic condition. The drug concentrations were measured over 9 timepoints collected between 0 and 24 hours of incubation by liquid-chromatography-coupled mass spectrometry (LC–MS); also: call rule not given here
- TEST PARAMETERS: 2 µM
METRIC: Bacterial Biotransformation

Past entries and their recorded results:
COMPOUND: CCOC(=O)[C@H](CCc1ccccc1)N[C@H]1CCc2ccccc2N(CC(=O)O)C1=O
RESULT: Compound metabolized
--
COMPOUND: C#C[C@]1(O)CC[C@H]2[C@@H]3CCC4=Cc5oncc5C[C@]4(C)[C@H]3CC[C@@]21C
RESULT: Compound metabolized
--
COMPOUND: CC(Oc1c(Cl)cccc1Cl)C1=NCCN1 (centres undefined)
RESULT: Compound metabolized
--
COMPOUND: CN(C(=O)CN(CCO)CC(=O)N(C)C(C)(C)Cc1ccccc1)C(C)(C)Cc1ccccc1
RESULT: Compound metabolized
--
COMPOUND: CC[C@@H](CO)NC(=O)[C@@H]1C=C2c3cccc4c3c(cn4C)C[C@H]2N(C)C1.O=C(O)/C=C\C(=O)O [METHYSERGIDE MALEATE]
RESULT: Compound NOT metabolized

Just so you know, measured Bacterial Biotransformation for "O=C(O)CCc1nc(-c2ccccc2)c(-c2ccccc2)o1" came out at Compound metabolized

// field: Bacterial Biotransformation; key: CN(C)CC(c1ccc(O)cc1)C1(O)CCCCC1.O=C(O)CCC(=O)O (centres undefined) [DESVENLAFAXINE SUCCINATE] ; value = Compound NOT metabolized

Value of Bacterial Biotransformation reported for the compound "C=CCN1CC[C@]23c4c5ccc(O)c4O[C@H]2C(=O)CC[C@@]3(O)[C@H]1C5" is Compound NOT metabolized

The reported value for "NC12CC3CC(CC(C3)C1)C2" in terms of Bacterial Biotransformation is Compound NOT metabolized

###

- TEST PARAMETERS: human gut metagenome, 24 h, 2 µM
METRIC: Bacterial Biotransformation

Known Bacterial Biotransformation results, listed for orientation:
COMPOUND: CCCCCOC(=O)Nc1nc(=O)n([C@@H]2O[C@H](C)[C@@H](O)[C@H]2O)cc1F
Bacterial Biotransformation: Compound metabolized
--
COMPOUND: OCCOCCN1CCN(C2=Nc3ccccc3Sc3ccccc32)CC1
Bacterial Biotransformation: Compound NOT metabolized
--
COMPOUND: CN1CCN(CC/C=C2/c3ccccc3Sc3ccc(S(=O)(=O)N(C)C)cc32)CC1
Bacterial Biotransformation: Compound NOT metabolized
--
COMPOUND: CC(=O)OCC(=O)[C@@]12N=C(C)O[C@@H]1C[C@H]1[C@@H]3CCC4=CC(=O)C=C[C@]4(C)[C@H]3[C@@H](O)C[C@@]12C
Bacterial Biotransformation: Compound metabolized
--
COMPOUND: CNCCC(Oc1ccc(C(F)(F)F)cc1)c1ccccc1 (stereo not drawn)
Bacterial Biotransformation: Compound NOT metabolized
--
COMPOUND: C=CCN1CC[C@]23c4c5ccc(O)c4O[C@H]2C(=O)CC[C@@]3(O)[C@H]1C5
Bacterial Biotransformation: Compound NOT metabolized
--
COMPOUND: CN1CC(=O)N2[C@H](c3ccc4c(c3)OCO4)c3[nH]c4ccccc4c3C[C@@H]2C1=O
Bacterial Biotransformation: Compound NOT metabolized

Let us examine a further case.
Briefly, Bacterial Biotransformation measured for CC(C)(C(=O)O)c1ccc(C(O)CCCN2CCC(C(O)(c3ccccc3)c3ccccc3)CC2)cc1 (stereo not drawn) [FEXOFENADINE] : Compound NOT metabolized
